Target: rat hepatic microsomal HMG CoA reductase (Rattus norvegicus, UniProt P51639)
Construct: rat hepatic microsomal HMG CoA reductase; from tissue; host or cells: rat liver microsomes
Assay: inhibition of rat hepatic microsomal HMG CoA reductase activity in vitro (Table I)
Assay type: biochemical
Details: 0.74 micrograms/ml
Readout Label: inhibition at 0.74 µg/mL (%)

Sample answers from the record:
CC(C)n1c(/C=C/[C@@H](O)C[C@@H](O)CC(=O)O)c(-c2ccc(F)cc2)c2ccccc2c1=O : 83
COC(=O)C[C@H](O)C[C@H](O)/C=C/c1c(-c2ccc(F)cc2)c2ccccc2c(=O)n1C(C)C : 79
CC(C)c1c(/C=C/[C@@H]2C[C@@H](O)CC(O)O2)n(-c2ccc(F)cc2)c(=O)c2ccccc12 (mixture of isomers) : 31
CC(C)c1c(CC[C@@H]2C[C@@H](O)CC(=O)O2)n(-c2ccc(F)cc2)c(=O)c2ccccc12 : 47
CC(C)n1c(/C=C/C2CC(O)CC(=O)O2)c(-c2ccc(F)cc2)c2ccccc2c1=O (stereo not shown) : 58
CC(C)c1c(/C=C/[C@@H]2C[C@@H](O)CC(=O)O2)n(-c2ccc(Cl)cc2)c(=O)c2ccccc12 : 56
CCOC(=O)CC(O)CC(O)/C=C/c1c(-c2ccc(F)cc2)c2ccccc2c(=O)n1C(C)C (stereo not shown) : 35
CC(C)n1c(/C=C/[C@@H]2C[C@@H](O)CC(=O)O2)c(-c2ccc(F)cc2)c2ccccc2c1=O : 85

I: Cc1c(/C=C/[C@@H]2C[C@@H](O)CC(=O)O2)n(-c2ccc(F)cc2)c(=O)c2ccccc12
II: COc1ccc(-n2c(/C=C/[C@@H]3C[C@@H](O)CC(=O)O3)c(C(C)C)c3ccccc3c2=O)cc1
Qu. Could you check which of I and II has a smaller value for inhibition at 0.74 µg/mL? Your choice should be expressed through its label.
Ans. I
(I: 10%, II: 34%)

A: O=C1C[C@H](O)C[C@@H](/C=C/c2c(-c3ccc(F)cc3)c3ccccc3c(=O)n2CC2CC2)O1
B: CC(C)c1c(/C=C/[C@@H]2C[C@@H](O)CC(=O)O2)n(CC2CCCCC2)c(=O)c2ccccc12
C: CC(C)c1c(/C=C/[C@@H]2C[C@@H](O)CC(=O)O2)n(C2CCCCC2)c(=O)c2ccccc12
Qu. Let's sort these by inhibition at 0.74 µg/mL, smallest first. Go ahead? Response format: the labels, sorted as the prompt asks.
Ans. B, A, C

====

Target: rat hepatic microsomal HMG CoA reductase (Rattus norvegicus)
Construct: rat hepatic microsomal HMG CoA reductase; from tissue; host or cells: rat liver microsomes
Assay: inhibition of rat hepatic microsomal HMG CoA reductase activity in vitro (Table I)
Format: biochemical
Details: 0.74 micrograms/ml
Readout Label: inhibition at 0.74 µg/mL (%)

CC(C)n1c(/C=C/C(O)CC(O)CC(=O)O)c(-c2ccc(F)cc2)c2ccccc2c1=O (stereo not drawn) [Compound E] : 28
CC(C)c1c(/C=C/[C@@H]2C[C@@H](O)CC(=O)O2)n(-c2ccc(F)cc2)c(=O)c2ccccc12 [Compound I] : 88
CC(C)n1c(CC[C@@H]2C[C@@H](O)CC(=O)O2)c(-c2ccc(F)cc2)c2ccccc2c1=O [AI] : 62

====

Target: rat hepatic microsomal HMG CoA reductase (Rattus norvegicus, UniProt P51639)
Construct: rat hepatic microsomal HMG CoA reductase; from tissue; host or cells: rat liver microsomes
Sequence (P51639 1-887): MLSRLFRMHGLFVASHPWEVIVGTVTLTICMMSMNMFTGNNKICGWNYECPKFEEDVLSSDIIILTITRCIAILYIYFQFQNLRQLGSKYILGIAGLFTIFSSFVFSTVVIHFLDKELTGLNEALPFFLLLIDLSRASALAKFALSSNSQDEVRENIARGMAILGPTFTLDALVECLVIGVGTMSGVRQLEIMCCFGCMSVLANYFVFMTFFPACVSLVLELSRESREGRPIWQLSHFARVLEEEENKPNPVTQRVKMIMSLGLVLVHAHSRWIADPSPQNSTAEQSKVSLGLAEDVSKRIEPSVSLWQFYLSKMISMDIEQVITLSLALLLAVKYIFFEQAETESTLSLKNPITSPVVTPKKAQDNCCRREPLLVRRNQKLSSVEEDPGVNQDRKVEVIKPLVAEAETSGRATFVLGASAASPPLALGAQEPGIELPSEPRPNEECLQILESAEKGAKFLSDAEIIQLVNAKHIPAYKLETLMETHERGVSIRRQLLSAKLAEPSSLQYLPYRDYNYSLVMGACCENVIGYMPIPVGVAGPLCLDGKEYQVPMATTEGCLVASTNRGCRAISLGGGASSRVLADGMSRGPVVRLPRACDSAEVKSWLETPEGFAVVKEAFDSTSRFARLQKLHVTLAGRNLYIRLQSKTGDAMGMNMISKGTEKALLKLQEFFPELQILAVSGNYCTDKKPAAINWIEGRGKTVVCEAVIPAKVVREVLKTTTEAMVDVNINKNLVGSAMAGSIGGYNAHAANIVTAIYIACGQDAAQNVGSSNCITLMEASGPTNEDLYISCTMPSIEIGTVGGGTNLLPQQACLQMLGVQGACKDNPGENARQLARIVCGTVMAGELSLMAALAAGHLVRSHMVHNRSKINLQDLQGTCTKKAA
Experiment: inhibition of rat hepatic microsomal HMG CoA reductase activity in vitro (Table I)
Format: biochemical
Conditions: 20.0 micrograms/ml
Readout Label: inhibition at 20 µg/mL (%)

CCOC(=O)CC(O)CC(O)/C=C/c1c(-c2ccc(F)cc2)c2ccccc2c(=O)n1C(C)C (stereo not drawn) : 94
Cn1c(/C=C/C(O)CC(O)CC(=O)O)c(-c2ccccc2)c2ccccc2c1=O (stereo not drawn) [B] : 65
CC(C)n1c(/C=C/[C@@H]2C[C@@H](O)CC(=O)O2)c(-c2ccc(F)cc2)c2ccccc2c1=O : 100
CC(C)c1c(/C=C/[C@@H]2C[C@@H](O)CC(=O)O2)n(-c2ccc(Cl)cc2)c(=O)c2ccccc12 : 97
Cn1c(/C=C/C(O)CC(O)CC(=O)O)c(-c2ccccc2)c2ccccc2c1=O (stereo not drawn) [BA] : 61
CC(C)c1c(CC[C@@H]2C[C@@H](O)CC(=O)O2)n(-c2ccc(F)cc2)c(=O)c2ccccc12 : 91

Where do the numbers come from? From patent US5004747A.
